The origin of these recorded values is patent US11446287B2.

# Test target: Recombinant human EP300 containing the bromodomain (EP300-BD (1040-1161)) (Homo sapiens, UniProt Q09472)
# Construct: Recombinant human EP300 bromodomain (EP300-BD (1040-1161))
# Sequence (Q09472 1040-1161): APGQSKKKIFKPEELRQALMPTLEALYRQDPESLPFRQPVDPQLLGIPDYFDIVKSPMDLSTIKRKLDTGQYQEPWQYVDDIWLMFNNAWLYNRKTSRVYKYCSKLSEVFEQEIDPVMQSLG
# Assay method text: EP300 Alphascreen binding assay
pIC50: −log10 of the molar value.
Each item that follows carries a reported pIC50.

Lookup: Using the record for Cc1noc(C)c1-c1cnc2c(c1)c(-c1ccc(C(=O)O)cc1OC(C)C)cn2C1(C)CCOC1 (stereo not shown) [P-0407] , report its pIC50.
Found: 6.00 to 10.00

Lookup: Using the record for CCOc1cc(C(=O)O)ncc1-c1cn(C2CCOCC2)c2ncc(-c3c(C)noc3C)cc12 [P-0428] , report its pIC50.
Found: 6.00 to 10.00

Lookup: Using the record for Cc1noc(C)c1-c1cnc2c(c1)c(-c1ccc(C(=O)O)cc1OC(C)C)cn2[C@H]1CCOC1 [P-0301] , report its pIC50.
Found: 6.00 to 10.00

Next:
Lookup: Using the record for CCc1onc(C)c1-c1cnc2c(c1)c(-c1c(Cl)cc(C(=O)O)cc1OC(F)(F)F)cn2-c1ccc(C2CC2)nc1 [P-0448] , report its pIC50.
Found: 6.00 to 10.00

###

Each item that follows carries a reported pIC50.
# Test target: Recombinant human BRD4 containing dual bromodomains (BRD4-BD12 (1-477)) (Homo sapiens)
# Construct: Recombinant human BRD4 containing dual bromodomains (BRD4-BD12 (1-477))
# Assay method text: BRD4 Alphascreen binding assay
pIC50: −log10 of the molar value.

Lookup: API: value(readout= pIC50, system= Recombinant human BRD4 containing dual bromodomains (BRD4-BD12 (1-477)) (Homo sapiens), query= Cc1noc(C)c1-c1cnc2c(c1)c(-c1ccc(C(=O)O)cc1OCc1ccccc1)cn2[C@@H](C)c1ccccn1 [P-0139] )
Found: 3.00 to 5.10

Next:
Lookup: API: value(readout= pIC50, system= Recombinant human BRD4 containing dual bromodomains (BRD4-BD12 (1-477)) (Homo sapiens), query= CCOc1cc(C(=O)O)c(F)cc1-c1cn(-c2ccccc2F)c2ncc(-c3c(C)noc3C)cc12 [P-0377] )
Found: 5.10 to 6.00

Lookup: API: value(readout= pIC50, system= Recombinant human BRD4 containing dual bromodomains (BRD4-BD12 (1-477)) (Homo sapiens), query= CCOc1cc(C(=O)O)cc(OCC)c1-n1cc(-c2cncc(Cl)c2)c2ncc(-c3c(C)noc3C)cc21 [P-0193] )
Found: 5.10 to 6.00

Lookup: API: value(readout= pIC50, system= Recombinant human BRD4 containing dual bromodomains (BRD4-BD12 (1-477)) (Homo sapiens), query= Cc1noc(C)c1-c1cnc2c(c1)c(-c1c(Cl)cc(C(=O)O)cc1OC1CC1)cn2C(C1CC1)C1CC1 [P-0363] )
Found: 5.10 to 6.00

Lookup: API: value(readout= pIC50, system= Recombinant human BRD4 containing dual bromodomains (BRD4-BD12 (1-477)) (Homo sapiens), query= Cc1noc(C)c1-c1cnc2c(c1)c(-c1c(Cl)cc(C(=O)O)cc1Cl)cn2C(C)c1ccccn1 (stereo not drawn) [P-0095] )
Found: 5.10 to 6.00

Lookup: API: value(readout= pIC50, system= Recombinant human BRD4 containing dual bromodomains (BRD4-BD12 (1-477)) (Homo sapiens), query= COc1ccc(-n2cc(-c3ccc(C(=O)O)cc3OC(F)(F)F)c3cc(-c4c(C)noc4C)cnc32)c(F)c1 [P-0311] )
Found: 5.10 to 6.00

Lookup: API: value(readout= pIC50, system= Recombinant human BRD4 containing dual bromodomains (BRD4-BD12 (1-477)) (Homo sapiens), query= Cc1noc(C)c1-c1cnc2c(c1)c(-c1ccc(C(=O)O)cc1OC(F)(F)F)cn2-c1ccc(=O)n(C)c1 [P-0399] )
Found: 5.10 to 6.00

Lookup: API: value(readout= pIC50, system= Recombinant human BRD4 containing dual bromodomains (BRD4-BD12 (1-477)) (Homo sapiens), query= Cc1noc(C)c1-c1cnc2c(c1)c(-c1ccc(C(=O)O)cc1OC(F)(F)F)cn2-c1ncccc1C(F)(F)F [P-0180] )
Found: 3.00 to 5.10

Lookup: API: value(readout= pIC50, system= Recombinant human BRD4 containing dual bromodomains (BRD4-BD12 (1-477)) (Homo sapiens), query= Cc1noc(C)c1-c1cnc2c(c1)c(-c1ccc(C(=O)O)cc1OC(F)(F)F)cn2-c1ccc(S(C)(=O)=O)cc1 [P-0282] )
Found: 6.00 to 10.00

Lookup: API: value(readout= pIC50, system= Recombinant human BRD4 containing dual bromodomains (BRD4-BD12 (1-477)) (Homo sapiens), query= CCOc1cc(C(=O)O)cc(OCC)c1-n1cc(CC2CCC2)c2ncc(-c3c(C)noc3C)cc21 [P-0109] )
Found: 5.10 to 6.00

Lookup: API: value(readout= pIC50, system= Recombinant human BRD4 containing dual bromodomains (BRD4-BD12 (1-477)) (Homo sapiens), query= Cc1noc(C)c1-c1cnc2c(Cc3ccccc3Cl)cn(-c3ccnc(C(=O)O)c3)c2c1 [P-0091] )
Found: 5.10 to 6.00

Lookup: API: value(readout= pIC50, system= Recombinant human BRD4 containing dual bromodomains (BRD4-BD12 (1-477)) (Homo sapiens), query= Cc1noc(C)c1-c1cnc2c(c1)c(-c1c(F)ccc(NS(C)(=O)=O)c1F)cn2C(C)c1ccccn1 (stereo not drawn) [P-0096] )
Found: 5.10 to 6.00

Lookup: API: value(readout= pIC50, system= Recombinant human BRD4 containing dual bromodomains (BRD4-BD12 (1-477)) (Homo sapiens), query= CCOc1cc(C(=O)O)cc(Cl)c1-c1cn(C2CCOCC2)c2ncc(-c3c(C)noc3C)cc12 [P-0371] )
Found: 5.10 to 6.00

Lookup: API: value(readout= pIC50, system= Recombinant human BRD4 containing dual bromodomains (BRD4-BD12 (1-477)) (Homo sapiens), query= Cc1noc(C)c1-c1cnc2c(c1)c(-c1ccc(C(=O)O)cc1OC(F)(F)F)cn2-c1ccc(C#N)cc1 [P-0313] )
Found: 5.10 to 6.00

Lookup: API: value(readout= pIC50, system= Recombinant human BRD4 containing dual bromodomains (BRD4-BD12 (1-477)) (Homo sapiens), query= CCOc1cc(C(=O)O)cc(OCC)c1-n1cc(-c2cnc(OC)nc2)c2ncc(-c3c(C)noc3C)cc21 [P-0201] )
Found: 5.10 to 6.00

###

# Test target: Recombinant human EP300 containing the bromodomain (EP300-BD (1040-1161)) (Homo sapiens, UniProt Q09472)
# Construct: Recombinant human EP300 bromodomain (EP300-BD (1040-1161))
# Assay method text: EP300 Alphascreen binding assay
Parameter: IC50

Lookup: Using the record for Cc1noc(C)c1-c1cnc2c(c1)c(-c1ccc(S(C)(=O)=O)cc1OC(C)C)cn2-c1ccccc1 , report its IC50.
Found: 0.1 to 1000 nM

Lookup: Using the record for Cc1noc(C)c1-c1cnc2c(c1)c(-c1ccc(C(=O)O)cc1OC(F)(F)F)cn2-c1ccccc1F , report its IC50.
Found: 0.1 to 1000 nM

Lookup: Using the record for COc1ccc(C(=O)O)cc1-n1cc(CC2CCC2)c2ncc(-c3c(C)noc3C)cc21 , report its IC50.
Found: 0.1 to 1000 nM

Lookup: Using the record for Cc1noc(C)c1-c1cnc2c(c1)c(-c1cccc(S(=O)(=O)NC3CC3)c1)cn2Cc1ccccc1 , report its IC50.
Found: 0.1 to 1000 nM

###

# Test target: Recombinant human BRD4 containing dual bromodomains (BRD4-BD12 (1-477)) (Homo sapiens)
# Construct: Recombinant human BRD4 containing dual bromodomains (BRD4-BD12 (1-477))
# Assay method text: BRD4 Alphascreen binding assay
Parameter: IC50

Example compounds with recorded IC50:
Lookup: Using the record for Cc1noc(C)c1-c1cnc2c(c1)c(-c1ccc(C(=O)O)cc1OC(F)(F)F)cn2-c1cnccc1O , report its IC50.
Found: 8 to 1000 µM

Lookup: Using the record for CCOC(=O)c1cc(-c2cn(-c3ccc(F)cc3F)c3ncc(-c4c(C)noc4C)cc23)c(OCC)cc1O , report its IC50.
Found: 8 to 1000 µM

Lookup: Using the record for COc1cc(C(=O)O)cc(OC)c1-c1cn(C(C)c2ccccc2)c2cc(-c3c(C)noc3C)cnc12 (stereo not shown) , report its IC50.
Found: 1 to 8 µM

Turning now to a further compound:
Lookup: Using the record for Cc1noc(C)c1-c1cnc2c(c1)c(-c1ccc(C(=O)O)cc1OC(C)C)c(C)n2C(C1CC1)C1CC1 , report its IC50.
Found: 8 to 1000 µM
